- test system: hP2X2/3H (Homo sapiens, UniProt P56373+Q9UBL9)
- Construct: expressed in transfected cells; host or cells: e.g. HEK293 or 1321N1
- Sequence (Q9UBL9 1-471): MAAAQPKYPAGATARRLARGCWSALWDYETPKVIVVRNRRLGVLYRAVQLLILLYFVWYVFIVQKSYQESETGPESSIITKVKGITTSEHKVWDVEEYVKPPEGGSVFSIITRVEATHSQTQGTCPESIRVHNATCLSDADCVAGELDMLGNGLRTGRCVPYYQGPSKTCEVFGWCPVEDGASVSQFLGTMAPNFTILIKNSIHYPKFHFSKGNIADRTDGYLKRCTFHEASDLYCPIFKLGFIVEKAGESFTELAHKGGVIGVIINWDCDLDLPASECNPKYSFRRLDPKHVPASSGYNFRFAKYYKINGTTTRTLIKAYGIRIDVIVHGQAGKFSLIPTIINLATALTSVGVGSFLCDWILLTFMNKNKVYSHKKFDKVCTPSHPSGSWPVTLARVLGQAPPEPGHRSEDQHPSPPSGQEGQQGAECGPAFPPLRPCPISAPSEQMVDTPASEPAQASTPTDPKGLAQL
- Sequence (P56373 1-397): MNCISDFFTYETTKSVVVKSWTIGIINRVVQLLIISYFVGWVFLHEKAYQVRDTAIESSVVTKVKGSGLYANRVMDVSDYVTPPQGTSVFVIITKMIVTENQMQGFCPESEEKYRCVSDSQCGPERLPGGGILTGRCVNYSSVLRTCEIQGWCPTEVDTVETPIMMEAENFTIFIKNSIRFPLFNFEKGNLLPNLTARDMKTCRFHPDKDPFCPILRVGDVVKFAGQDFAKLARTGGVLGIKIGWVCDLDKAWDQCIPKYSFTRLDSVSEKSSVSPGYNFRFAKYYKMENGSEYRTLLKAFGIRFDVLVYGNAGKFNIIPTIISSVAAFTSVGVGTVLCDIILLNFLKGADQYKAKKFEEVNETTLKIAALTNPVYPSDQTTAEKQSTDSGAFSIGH
- experimental details: Calcium uptake assay (P2X antagonist assay), P2X2/3 heteromer
- Type: cell-based
- condition context: calcium uptake assay, hP2X2/3H; read-out: IC50 hP2X2/3H (nM), Ca Influx
measurement name: IC50

Worked examples, 6 compounds total:
smi: Cc1ccc(-c2cc(C(=O)N[C@H](C)c3ccc(C(F)(F)F)nc3)cc(C(=O)N(C)CC(C)C)c2)cc1
test system: hP2X2/3H (Homo sapiens, UniProt P56373+Q9UBL9)
IC50: 100 to 500 nM
//
smi: Cc1ccc(-c2cc(C(=O)NCc3ccc4ocnc4c3)cc(C(=O)N3CCCC3)c2)cc1
test system: hP2X2/3H (Homo sapiens, UniProt P56373+Q9UBL9)
IC50: < 100 nM
//
smi: Cc1ccc(-c2cc(C(=O)N[C@H](C)c3ccc(C(F)(F)F)nc3)cc(C(=O)N3CC[C@@H](O)C3)c2)nc1
test system: hP2X2/3H (Homo sapiens, UniProt P56373+Q9UBL9)
IC50: < 100 nM
//
smi: Cc1ccc(-c2cc(C(=O)NCc3cnc(C)nc3)cc(C(=O)N3CCC(F)(F)C3)c2)cc1
test system: hP2X2/3H (Homo sapiens, UniProt P56373+Q9UBL9)
IC50: < 100 nM
//
smi: Cc1ccc(-c2cc(C(=O)NCc3cnc(C)nc3)cc(C(=O)NCc3cnc(C)nc3)c2)cc1
test system: hP2X2/3H (Homo sapiens, UniProt P56373+Q9UBL9)
IC50: 100 to 500 nM
//
smi: Cc1ccc(-c2cc(C(=O)N[C@H](C)c3ccc(C(F)(F)F)nc3)cc(C(=O)N3CCC3)c2)cc1
test system: hP2X2/3H (Homo sapiens, UniProt P56373+Q9UBL9)
IC50: < 100 nM

Look up IC50 of `COc1ncc(CNC(=O)c2cc(C(=O)N3CCCC3)cc(-c3ccc(C)cc3)c2)c(N)n1` and report it. 501 to 1000 nM
